tested on: normal primary NK cells, pool 1 (3 donors), resting (IL-2 0 ng/mL); assay: drug sensitivity score (DSS) (DSS units); higher = more sensitive; extreme values may be limits of the assay; settings: 72 h
Please use Y whenever drug sensitivity score is not below 3, and N whenever it is.

| compound | label |
| --- | --- |
| CC(C)C(=O)Nc1ccc([N+](=O)[O-])c(C(F)(F)F)c1 [Flutamide] (max concentration tested 10000 nM) | N |

Problem: Check the entry O=C1c2c(O)ccc(O)c2C(=O)c2c(NCCNCCO)ccc(NCCNCCO)c21 [Mitoxantrone] (max concentration tested 1000 nM) : does drug sensitivity score equal or exceed 3?
Result: Y

Problem: Follow-up entry: O=C(NC1CCNCC1)c1n[nH]cc1NC(=O)c1c(Cl)cccc1Cl [AT7519] (max concentration tested 10000 nM)
Result: Y

Problem: Same question for CC[C@@]1(O)C(=O)OCc2c1cc1n(c2=O)Cc2cc3c(CN(C)C)c(O)ccc3nc2-1 [Topotecan] (max concentration tested 10000 nM) please.
Result: Y

Problem: Queued: O=C1CCC(N2C(=O)c3ccccc3C2=O)C(=O)N1 (stereo unspecified) [Thalidomide] (max concentration tested 10000 nM)
Result: N

###

system: KAI3 (IL-2 2.5 ng/mL); experiment: drug sensitivity score (DSS) (DSS units); higher = more sensitive; extreme values may be limits of the assay; details: 72 h
# if value of drug sensitivity score reaches 7, tag rule met; if it stays below, tag rule not met

Please review the entries below; each comes with its answer.
| compound | label |
| --- | --- |
| COc1ccc(S(=O)(=O)Nc2cccnc2Nc2ccc(O)cc2)cc1 [ABT-751] (max concentration tested 10000 nM) | rule met |
| COc1cc2ncnc(Nc3ccc(F)c(Cl)c3)c2cc1NC(=O)/C=C/CN1CCCCC1 [Dacomitinib] (max concentration tested 1000 nM) | rule not met |
| CCn1nnc2c(N3CCOCC3)nc(-c3ccc(NC(=O)Nc4ccc(C(=O)N5CCN(C)CC5)cc4)cc3)nc21 [PKI-402] (max concentration tested 2500 nM) | rule met |
| CN(C)C[C@@H]1CCn2cc(c3ccccc32)C2=C(C(=O)NC2=O)c2cn(c3ccccc23)CCO1 [Ruboxistaurin] (max concentration tested 10000 nM) | rule met |

Problem: Answer whether drug sensitivity score of C[C@]12C=CC(=O)C=C1CC[C@@H]1[C@@H]2C(=O)C[C@@]2(C)[C@H]1CC[C@]2(O)C(=O)CO [Prednisone] (max concentration tested 10000 nM) is greater than or equal to 7.
Result: rule not met

###

system: normal primary NK cells, pool 1 (3 donors), resting (IL-2 0 ng/mL); assay: percent inhibition of viability; higher = more inhibition; details: 72 h; 2.5 nM
parameterMeasured: percent inhibition of viability (%)
Hi! Could you send only the number? It should be in %, unit omitted.

Solved entries:
| molecule | testedOn | resultUnit | readoutNumber |
| --- | --- | --- | --- |
| CCn1nnc2c(N3CCOCC3)nc(-c3ccc(NC(=O)Nc4ccc(C(=O)N5CCN(C)CC5)cc4)cc3)nc21 [PKI-402] (max concentration tested 2500 nM) | normal primary NK cells, pool 1 (3 donors), resting (IL-2 0 ng/mL) | % | 0.44 |
| CN1CCN(C2CCN(C(=O)Nc3cc(Oc4ccc(NC(=O)C5(C(=O)Nc6ccc(F)cc6)CC5)c(F)c4)ccn3)CC2)CC1 [Golvatinib] (max concentration tested 2500 nM) | normal primary NK cells, pool 1 (3 donors), resting (IL-2 0 ng/mL) | % | 12.3 |
| CCOc1cc2ncc(C#N)c(Nc3ccc(F)c(Cl)c3)c2cc1NC(=O)/C=C/CN(C)C [Pelitinib] (max concentration tested 2500 nM) | normal primary NK cells, pool 1 (3 donors), resting (IL-2 0 ng/mL) | % | -8.29 |

Now take the following molecule into account.
Problem: Look at this molecule and give its reported percent inhibition of viability. Cc1cc(Nc2ncc(Cl)c(Nc3ccccc3S(=O)(=O)C(C)C)n2)c(OC(C)C)cc1C1CCNCC1 [Ceritinib] (max concentration tested 2500 nM)
Result: -13.8
